Experimental System: Fibroblast growth factor 2 (Homo sapiens) (UniProt P09038)
Sequence (P09038 whole entry, looked up): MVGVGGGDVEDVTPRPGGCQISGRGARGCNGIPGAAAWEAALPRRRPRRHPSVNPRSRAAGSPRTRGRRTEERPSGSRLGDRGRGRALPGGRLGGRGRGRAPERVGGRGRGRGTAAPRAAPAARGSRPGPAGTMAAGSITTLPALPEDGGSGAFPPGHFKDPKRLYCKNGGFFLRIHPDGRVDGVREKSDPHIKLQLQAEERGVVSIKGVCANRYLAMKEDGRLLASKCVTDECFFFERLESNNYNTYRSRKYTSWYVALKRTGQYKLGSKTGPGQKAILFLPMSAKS
Protocol Summary: FGF2 binders on small-molecule microarrays, primary screen, biochemical, small-molecule microarray, 635/667 nm fluorescence (AID 1133)
Conditions Used: small-molecule microarray binding, FGF2, fluorescence 635/667; higher = more signal
Quantity Measured: composite z-score
Numbers only.

CCOC(=O)[C@H](Cc1ccccc1)NC(=O)CCC1CC(OC(=O)NCc2ccc3c(c2)OCO3)CC2(CCCC(COC(=O)NCCc3ccccc3OC)O2)O1 (some centres undefined) | 1.32
CC(C)CON=C1C[C@@H](O)[C@@H](O)[C@@H]2[C@@H]3C(=O)N(C(C)(C)C)C(=O)[C@@H]3CC[C@H]12 | -0.546
CC(=O)OC[C@H]1O[C@H](C#Cc2ccccc2)C=C[C@@H]1OC(C)=O | 0.271

Give measured composite z-score for every item shown.
1. O=C1CCCC=C1C(CCc1ccccc1)OC(=O)c1ccc(Br)cc1 (centres undefined)
2. COC(=O)[C@H](C)NC(=O)CCC1CC(OC(=O)NCCc2ccc(F)cc2)CC2(CCCC(COC(=O)NCCC(C)C)O2)O1 (some centres undefined)
3. CCO[C@H](c1cc(OC)cc([N+](=O)[O-])c1OC)[C@H](C)C=CCC(=O)OC
4. CCOC(=O)[C@H](Cc1ccccc1)NC(=O)CCC1CC(OC(=O)NCCc2ccc(F)cc2)CC2(CCCC(COC(=O)NCC3CCCCC3)O2)O1 (some centres undefined)
5. CO[C@H]1COC(=O)CC=C[C@H](C)COC(=O)[C@@H](C)NC(=O)CC=C[C@@H]1C
6. COC(=O)NCC=Cc1nc(CCCO)co1

Reply:
1. 0.0039
2. 0.761
3. 0.479
4. 0.238
5. 0.654
6. 0.564

Hey, just so you know, these numbers are from PubChem BioAssay.
